- tested.target: HDAC6 (Homo sapiens, UniProt Q9UBN7)
- Construct: purchased Reaction Biology Corporation (assay run by the CRO)
- Sequence (Q9UBN7 whole entry): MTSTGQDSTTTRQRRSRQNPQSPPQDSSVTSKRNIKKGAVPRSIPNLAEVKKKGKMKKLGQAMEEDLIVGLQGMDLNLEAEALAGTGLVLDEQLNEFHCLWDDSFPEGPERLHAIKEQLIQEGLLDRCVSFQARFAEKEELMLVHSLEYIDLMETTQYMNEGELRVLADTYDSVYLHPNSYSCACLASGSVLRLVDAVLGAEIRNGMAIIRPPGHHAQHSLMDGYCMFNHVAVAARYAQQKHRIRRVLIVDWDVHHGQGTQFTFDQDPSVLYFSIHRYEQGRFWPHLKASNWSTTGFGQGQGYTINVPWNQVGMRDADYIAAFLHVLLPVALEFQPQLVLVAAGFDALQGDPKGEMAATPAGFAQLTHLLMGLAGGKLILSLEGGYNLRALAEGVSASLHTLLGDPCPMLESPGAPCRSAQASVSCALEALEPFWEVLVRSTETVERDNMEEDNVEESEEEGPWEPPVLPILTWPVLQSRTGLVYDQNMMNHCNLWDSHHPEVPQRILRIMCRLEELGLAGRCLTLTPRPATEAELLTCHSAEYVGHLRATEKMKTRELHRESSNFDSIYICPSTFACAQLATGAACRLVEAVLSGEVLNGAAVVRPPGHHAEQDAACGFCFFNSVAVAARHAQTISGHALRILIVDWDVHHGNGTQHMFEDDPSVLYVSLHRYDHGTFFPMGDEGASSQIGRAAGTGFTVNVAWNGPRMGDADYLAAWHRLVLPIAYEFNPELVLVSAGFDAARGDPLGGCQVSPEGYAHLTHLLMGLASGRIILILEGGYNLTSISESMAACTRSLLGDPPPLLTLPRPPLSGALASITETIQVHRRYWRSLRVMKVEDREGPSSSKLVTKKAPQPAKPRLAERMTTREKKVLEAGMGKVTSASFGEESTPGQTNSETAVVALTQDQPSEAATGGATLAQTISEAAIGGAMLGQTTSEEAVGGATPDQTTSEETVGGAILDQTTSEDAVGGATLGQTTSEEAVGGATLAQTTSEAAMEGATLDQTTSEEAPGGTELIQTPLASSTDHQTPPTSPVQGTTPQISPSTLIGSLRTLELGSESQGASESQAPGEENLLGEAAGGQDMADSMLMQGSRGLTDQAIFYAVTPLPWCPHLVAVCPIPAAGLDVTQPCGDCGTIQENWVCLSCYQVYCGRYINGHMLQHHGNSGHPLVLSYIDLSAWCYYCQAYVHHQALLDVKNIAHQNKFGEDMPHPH
- test.details: HDAC6 inhibition, full IC50 measurement (Reaction Biology; fluorogenic p53 peptide RHKK(Ac)AMC)
- Type: biochemical
- run.conditions: Conc. 1.23E-07 M, t1
- Experimental: The assay was performed using 50 μM fluorogenic peptide from p53 residues 379-382 [RHKK(Ac)AMC] in a base reaction buffer of 50 mM Tris-HCl at pH 8.0, 137 mM NaCl, 2.7 mM KCl, 1 mM MgCl2, and freshly added 1 mg/ml BSA and 1% DMSO. […] Peptide concentrations were calculated based on mass of lyophilized peptide and its molecular weight. […]
Peptide text beside a SMILES is read from it.
assay.metric: HDAC6 activity raw data (signal)
// keep it numeric: no unit symbol after the value

Find HDAC6 activity raw data (signal) (HDAC6 (Homo sapiens, UniProt Q9UBN7)) for the entry CCCC[C@H]1NC(=O)[C@H](Cc2ccccc2)NC(=O)[C@H](CCCCCS)NC(=O)[C@@H](CO)NC(=O)[C@H](CC(=O)O)NC(=O)[C@@H](CO)NC(=O)[C@@H](C)NC(=O)[C@H](CCCCN)NC1=O [des4.3.1.1, SHA-Phe-dNle-Lys-dAla-dSer-Asp-dSer] (HELM PEPTIDE1{D.[dS].[O=C([C@H](CCCCCS)N[*:1])[*:2]].F.[CCCC[C@@H](N[*:1])C(=O)[*:2]].K.[dA].[dS]}$PEPTIDE1,PEPTIDE1,1:R1-8:R2$$$V2.0)
1294999

# credit: paper PMC8185074
